- system: Hexose transporter 1 (Plasmodium falciparum) (UniProt O97467)
- test details: ST_JUDE_LEISH: Cytotoxicity at 2uM final concentration against transgenic Leishmania Mexicana promastigotes LmPfHT that are glucose transport deficient and complemented with the Plasmodium falciparum hexose transporter. Activity is measured by DNA content using SYBR green in vitro
- Type: functional
Recorded measurements of inhibition, one per entry

molecule	inhibition (%)
CN(C)CCOc1cc(NC(=O)Nc2ccc(-c3ccccc3)cc2Cl)ccc1I	0.57
COc1ccc(CNC2Cc3ccccc3C2)cc1-c1ccc(S(=O)(=O)NCCN2CCCC2)cc1	1.44
Nc1nc(N)c2c(ccc3c2ccn3Cc2cccc3ccccc23)n1	96
O=C(NCCCCN1CCC(c2ccc3c(c2OCCCO)CCCC3)CC1)c1ccc(-c2ccc(C(F)(F)F)cc2)c(CO)c1	-0.59
COc1cc(-c2nc(-c3ccncc3)c(-c3ccc4c(c3)CCC4=NO)[nH]2)ccc1OCCN1CCN(C)CC1	6.49
COC(=O)c1ccc2nc(-c3cc(-c4cccc(-c5ccccc5)c4)cnc3N)[nH]c2c1	5.28
Cc1cc(Cc2ccc(S(=O)(=O)c3cc4c(cc3O)CCN(C)CC4)cc2)ccc1Cl	2.07
COc1cc(C(=O)Nc2ccc(-c3nc4ccccc4[nH]3)cc2)cc(OC)c1OC	2.26
FC(F)(F)c1ccc2[nH]c(-c3ccc(-c4ccc(CN5CCN(c6ccncc6)CC5)cc4)cc3)nc2c1	85.7
COc1ccc(C2CC(=O)C3=C(C2)NC(C)=C(C(=O)OC2CCCC2)C3c2cccc(O)c2)cc1OC (stereo not drawn)	1.05
NC1CCN(CCNCc2cccc(-c3ccc(-c4nc5cc(F)ccc5[nH]4)cc3)c2)C1 (stereo not drawn)	11.1
c1ccc2c(C3CCN(CCCCOc4ccc5c(c4)CCN(CC4CC4)CC5)CC3)c[nH]c2c1	43.6
O=C(Nc1ccc(Cl)cc1)c1cc(Cl)cc2nc(C(F)(F)F)[nH]c12	15
Cc1ccc2c(OCCN3CCC(Cc4ccc5c(c4)NC(=O)CO5)CC3)cc(F)cc2n1	2.13
Cc1cc(O)c2c3c1C(=O)C=C1C3c3c(c(O)cc(O)c3C(=O)C1(C)C)C2=O (stereo not drawn)	-5.26
N#Cc1ccc(-c2cnc3ccc(NCc4ccc(S(N)(=O)=O)cc4)nn23)cc1	1.16
CC(=O)Nc1ccc(CN2CCC(NC(=O)c3ccc(-c4cccc(Cl)c4)s3)CC2)cc1	-0.15
COc1c(C2CCN(CCCCNC(=O)c3noc(-c4ccc(C#N)cc4)n3)CC2)ccc2c1CCCC2	1.9
Oc1cc(Nc2ccnc3cc(I)ccc23)ccc1F	-0.07
COc1cc2nc(N3CCC(CNC(=O)c4ccc(-c5cccc(C#N)c5)cc4)CC3)nc(N)c2cc1OC	2.28
c1cc(CN2CCc3ccccc3CC2)cc(-c2c[nH]c3nc(NC4CCCC4)ncc23)c1	-0.68
Cc1ccc(S(=O)(=O)N(C)c2ccccc2C(=O)Nc2ccccc2Oc2ccccc2)cc1	-0.51
COc1cc(Nc2nccc(-c3c(-c4cccc(NC(=O)c5c(F)cccc5F)c4)nn4ncccc34)n2)cc(OC)c1OC	16.6
O=C(COc1ccc(Cl)c(Cl)c1)NCCCCCN1CCCN(C(=O)Nc2ccc(Cl)c(Cl)c2)CC1	3.1
Cc1nc(N)nc(N)c1-c1ccc(Br)cc1	8.21
Nc1nc(N)c2c(ccn2Cc2cc3c(cc2Cl)OCO3)n1	2.86
Cc1cc(=NN=Cc2ccccc2)c2cc(C(F)(F)F)ccc2[nH]1	8.87
COc1cc2nc(C)nc(Nc3ccc4c(ccn4Cc4ccccc4)c3)c2cc1OC	5.91
CN1CCN(CC2(Nc3nccc(NCc4ccc(Cl)cc4Cl)n3)CCCCC2)CC1	7.74
COc1cc2c(cc1N(C(C)C)S(=O)(=O)c1sc3ccc(Cl)cc3c1C)CCNCC2	10.2
O=C(Nc1cccc(CN2CCCN(Cc3ccc(O)cc3)CC2)c1)c1cccc(C(F)(F)F)c1	9.62
COc1ccc2nccc([C@@H](O)CN3CCC(NCCOc4ccc(F)cc4[N+](=O)[O-])CC3)c2c1	-1
CC1CN(Cc2cccc(F)c2)CCN1c1ccc(NC(=O)c2ccc(F)cc2)cc1 (stereo not drawn)	1.55
Cc1cccc2nc(-c3ccc(-c4ccc(NC(=O)c5cncn5C)cc4)s3)[nH]c12	9.8
O=C(Nc1ccc(F)c(F)c1)c1ccc(CN2CCCN(Cc3cccc(F)c3)CC2)cc1	-0.34
CN(C)CCN(C)Cc1ccc(-c2cccc(-c3nc4ccccc4[nH]3)c2)cc1	1.04
Cc1cccc2nc(-c3ccc(-c4cccc(NC(=O)c5cncn5C)c4)cc3)[nH]c12	5.37
COc1ccc(CNCc2cccc(-c3ccc(-c4nc5cc(C(F)(F)F)ccc5[nH]4)cc3)c2)cc1	6.65

Ref: ChEMBL document CHEMBL3433997
